- Test name: Pharmacokinetic evaluation in blood by LC-MS/MS
- Assay type: in vivo, female NOD/SCID mice
- Recorded conditions: female, NOD/SCID, mouse, ip, 100 umol/kg; intraperitoneal, 100 μmol/Kg, blood, ± S.D.; read-out: AUC0-24
Attribute measured: AUC(0-t)
Kindly write the number and append the unit.

Task item: Identify measured AUC(0-t) corresponding to Cc1[nH]c(/C=C2\C(=O)Nc3ccc(F)cc32)c(C)c1C(=O)NCCN1CCNCC1
Reply: 50.3 µM·h

---

- Test name: Pharmacokinetic evaluation in blood by LC-MS/MS
- Format: in vivo, female NOD/SCID mice
- Recorded conditions: female, NOD/SCID, mouse, ip, 100 umol/kg; intraperitoneal, blood
Attribute measured: Tmax (min)
One number for each entry, in min.

Task item: Identify measured Tmax corresponding to Cc1[nH]c(/C=C2\C(=O)Nc3ccc(F)cc32)c(C)c1C(=O)NCCN1CCNCC1
Reply: 15
